Cited source: PubChem BioAssay (NCI)

system: SF-539 CNS; test: NCI tumour cell line growth inhibition, 48 h
Listing: TGI of selected molecules

[
  {
    "Molecule": "CC(C)(C)[Si](C)(C)OCCOCn1cc(F)c(=O)[nH]c1=O",
    "Result": "> 100 µM"
  },
  {
    "Molecule": "COC(C)(C)CCc1[nH]c2ccccc2c1CC(=O)NCCc1cncn1C",
    "Result": "> 100 µM"
  },
  {
    "Molecule": "CCOC(=O)c1nc(-c2ccccc2)oc1OCC",
    "Result": "> 100 µM"
  }
]

Input line: Can you look up the measured TGI of CC1CCC(C(C)C)C(O[C@@H]2OC(=O)C[C@@H]2Sc2ccccc2)C1 (stereo partly drawn) for me?
Output line: 61.8 µM

Input line: Can you look up the measured TGI of COC(=O)c1cc(-c2cccn2C)c2c(c1C(=O)OC)c1ccccc1n2C for me?
Output line: > 100 µM

Input line: Can you look up the measured TGI of C=CCC(OCCOCC)c1cc(OCCOCC)ccc1OC (stereo not drawn) for me?
Output line: > 100 µM

Input line: Can you look up the measured TGI of Cc1ccc2c(C)c3ccc4ccccc4c3c[n+]2c1 for me?
Output line: 33.7 µM

Input line: Can you look up the measured TGI of O=C(CN1CCN(c2ccccc2)CC1)N1CCN(c2nnc(-c3ccc(Cl)cc3)c(-c3ccc(Cl)cc3)n2)CC1 for me?
Output line: > 100 µM

Input line: Can you look up the measured TGI of Cc1cn2c(/C=N/Nc3ccccn3)c(-c3ccc(Cl)c([N+](=O)[O-])c3)nc2s1 for me?
Output line: 3.53 µM

Input line: Can you look up the measured TGI of CS/C(C)=N/OC(=O)NCCCCNc1ccc(N=[N+]=[N-])cc1 for me?
Output line: > 100 µM

Input line: Can you look up the measured TGI of CC(C)C12C=CC(C)(CC1)n1c(=O)c3cc4ccccc4cc3c(=O)n12 (stereo not drawn) for me?
Output line: > 100 µM

Input line: Can you look up the measured TGI of CCOc1cc2c(cc1OC(C)=O)C(=O)CC[C@H]1C3CC[C@H](OC(C)=O)[C@@]3(C)CC[C@H]21 (stereo partly drawn) for me?
Output line: > 100 µM

Input line: Can you look up the measured TGI of CC(C)c1ccc(Nc2nccc(-c3cnn4ncccc34)n2)cc1 for me?
Output line: 1.68 µM

Input line: Can you look up the measured TGI of CC(C)C/C=C/C1=NN(c2cccc(S(=O)(=O)O)c2)C2(C1)SCC(=O)N2c1nc2ccccc2s1 (stereo not drawn) for me?
Output line: > 100 µM

Input line: Can you look up the measured TGI of O=C(N/N=C/c1cc([N+](=O)[O-])ccc1O)c1cccc2ccccc12 for me?
Output line: 24.2 µM
